Tested on: mitochondrial membrane potential (ΔΨm)
Assay: Membrane potential (ΔΨm) counterscreen with TMRM
Settings: Table 8, glutamate, malate, nigericin
Classification field: Yes = ΔΨm at or over -0.2; No = ΔΨm under -0.2.

INSERT INTO results (molecule, test_target, discrete_label) VALUES
  ('Oc1nnc(Cc2ccncc2)c2ccccc12 [Compound 72]', 'mitochondrial membrane potential (ΔΨm)', 'Yes'),
  ('CCCCN(Cc1ccccc1)Cc1cccc(Oc2ccc(Cl)cc2)c1 [Compound 44]', 'mitochondrial membrane potential (ΔΨm)', 'Yes'),
  ('C=C(C)CN(CC)Cc1cc([N+](=O)[O-])ccc1Cl [Compound 45]', 'mitochondrial membrane potential (ΔΨm)', 'Yes'),
  ('CCCCN(Cc1ccccc1)Cc1cc(Cl)cc(Cl)c1O [Compound 38]', 'mitochondrial membrane potential (ΔΨm)', 'Yes'),
  ('Cc1ccccc1NS(=O)(=O)c1ccc(C2CCCCC2)cc1 [Compound 9]', 'mitochondrial membrane potential (ΔΨm)', 'Yes'),
  ('COc1ccccc1/C=C/c1nc(O)nc(O)c1[N+](=O)[O-] [Compound 16]', 'mitochondrial membrane potential (ΔΨm)', 'No'),
  ('CN(C)CCN(Cc1ccccc1)Cc1ccc(C(F)(F)F)cc1 [Compound 29]', 'mitochondrial membrane potential (ΔΨm)', 'No'),
  ('O=C(O)CSc1cccc(C(=O)Nc2ccc(Br)cc2)c1 [Compound 47]', 'mitochondrial membrane potential (ΔΨm)', 'Yes'),
  ('COc1ccc(NS(=O)(=O)c2cccc(C(=O)Nc3ccc(C)cc3)c2)cc1 [Compound 11]', 'mitochondrial membrane potential (ΔΨm)', 'No');

* * *

Tested on: ubiquinone binding site of complex I (IQ)
Assay: High-throughput screen: ROS production from ubiquinone binding site of complex I (IQ), isolated skeletal muscle mitochondria
Format: biochemical, rat
Settings: Table 9; percent change in ROS from DMSO controls
Classification field: Yes = IQ at or over 0.1; No = IQ under 0.1.

INSERT INTO results (molecule, discrete_label) VALUES
  ('COc1cc(CN(CCN(C)C)Cc2ccccc2)cc(OC)c1 [Compound 31]', 'No'),
  ('Cc1cc(C)c(OCC(O)CNC(C)(C)CC(C)(C)C)c(C)c1.Cl (stereo not drawn) [Compound 14]', 'No'),
  ('CC1CC(C)(C)N(C=O)c2ccccc21 (stereo not drawn) [Compound 71]', 'Yes'),
  ('O=C(O)C1CCCCC1C(=O)NC1CCCCCCC1 (stereo not drawn) [Compound 30]', 'No'),
  ('O=C(Nc1ccc(Br)cc1)[C@@H]1C2C=CC(C2)[C@@H]1C(=O)O (stereo partly drawn) [Compound 28]', 'Yes'),
  ('O=C(COc1ccc(Cl)cc1Cl)Nc1ccc(F)cc1F [Compound 24]', 'No'),
  ('Cc1ccc(S(=O)(=O)Nc2nnc(C)s2)cc1 [Compound 27]', 'No'),
  ('COc1ccc(C2C(C#N)=C(N)Oc3c2c(=O)oc2ccccc32)cc1O (stereo not drawn) [Compound 74]', 'No'),
  ('CN(C)CCN(Cc1ccccc1)Cc1ccccc1Br [Compound 23]', 'No'),
  ('O=C(O)CCC(=O)Nc1ccc(-c2nc3ccccc3o2)cc1 [Compound 50]', 'Yes'),
  ('CCCCN(Cc1ccccc1)Cc1cccc(Oc2ccc(Cl)cc2)c1 [Compound 44]', 'Yes');
